Recorded TGI values for a group of compounds are listed next.
# Tested on: HOP-62 NSCLC
# TEST DETAILS: NCI tumour cell line growth inhibition, 48 h
READOUT KIND: TGI

>>> assay_result("COc1ccc(N=C(SSC(=Nc2ccc(OC)cc2)c2ccc([N+](=O)[O-])o2)c2ccc([N+](=O)[O-])o2)cc1")
"6.41 µM"
>>> assay_result("CCOC(=O)Oc1ccc2[nH]c3c(C)cc(N)c(C)c3c2c1")
"> 100 µM"
>>> assay_result("CN1CCN(Cc2ccc(NC(=O)c3cncc(C#Cc4cnc5cccnn45)c3)cc2C(F)(F)F)CC1")
"5.08 µM"
>>> assay_result("COc1ccc(S(=O)(=O)NCCCNc2nccc(-c3c(-c4ccc(F)cc4)nc4sccn34)n2)cc1")
"> 100 µM"
>>> assay_result("Cc1cc(N(CCCl)CCCl)ccc1/C=N\\NC(=O)c1cccnc1")
"> 100 µM"
>>> assay_result("CCOC(=O)c1sc2nc(SC)nc3c2c1NCN3c1ccccc1Cl")
"> 100 µM"

* * *

# Tested on: HOP-92 NSCLC
# TEST DETAILS: NCI tumour cell line growth inhibition, 48 h; in the data active means GI50 below about 0.43 µM; inactive means the rest
Classes used: active, inactive

>>> category("Cn1c(=O)c(Oc2ccc(F)cc2F)cc2cnc(NC3CCC(O)CC3)nc21 (configuration not stated)")
"inactive"
>>> category("Cn1c(=O)c(-c2c(Cl)cccc2Cl)cc2cnc(Nc3ccc(N4CCOCC4)cc3)nc21")
"active"
>>> category("O=C1COc2c(CCNCCN(C(=O)CCNCCc3ccc(Cl)c(Cl)c3)C3CCCCC3)ccc(O)c2N1")
"active"
>>> category("O=C(COC(=O)[C@H](C[Se][Se]C[C@H](NC(=O)c1ccc(Br)cc1F)C(=O)OCC(=O)c1ccc(F)cc1)NC(=O)c1ccc(Br)cc1F)c1ccc(F)cc1")
"inactive"
>>> category("Nc1ccc(N)c2c1C(=O)c1cccc([N+](=O)[O-])c1C2=O")
"inactive"
>>> category("CC(C)=NO.CC(C)=NO.CC(C)=NO.CC(C)=NO.[Ti]")
"inactive"
>>> category("Oc1ccc(CCNc2nc3ccccc3c3[nH]c4ccccc4c23)cc1")
"inactive"

* * *

# Test system: T-47D breast
# TEST DETAILS: NCI tumour cell line growth inhibition, 48 h
Recorded TGI values for a group of molecules are listed next.
READOUT KIND: TGI

>>> assay_result("Oc1[nH]c2ccccc2c1N=Nc1nc(-c2ccccc2)cs1")
"> 100 µM"
>>> assay_result("Cc1cc(NS(=O)(=O)c2ccc(NC(NC(=O)OC(C)C)(C(F)(F)F)C(F)(F)F)cc2)nc(C)n1")
"> 100 µM"
>>> assay_result("O=C1Cc2c([nH]c3c(Br)cccc23)-c2ccccc2N1")
"> 100 µM"
>>> assay_result("N#Cc1c2c(c(Nc3ccc(Cl)cc3)n3c1nc1ccccc13)CCCC2")
"> 100 µM"
>>> assay_result("Nc1nc2c(ccc3ccccc32)[nH]1")
"> 10 µM"

* * *

Recorded TGI values for a group of compounds are listed next.
# Tested on: TK-10 renal
# TEST DETAILS: NCI tumour cell line growth inhibition, 48 h
READOUT KIND: TGI

>>> assay_result("CC(=O)Oc1cc(OC(C)=O)c2c(c1C)CC[C@@H]1[C@@H]2CC[C@]2(C)[C@@H](OC(C)=O)CC[C@@H]12")
"35 µM"
>>> assay_result("CCOC(=O)NC/C=C/CO")
"> 100 µM"
>>> assay_result("O=C(/C=C/c1ccc(OCC(=O)N2CCN(c3ccccc3)CC2)cc1)c1ccccc1")
"> 79.4 µM"
>>> assay_result("Cc1cccc(Cc2cnc(NC(=O)CCCOc3ccc(Cl)cc3)s2)c1")
"> 100 µM"
>>> assay_result("CCCCCNC(=O)OC1CCn2c1nc1c2C(=O)C(C)=C(N2CC2)C1=O (stereo not drawn)")
"12.5 µM"
>>> assay_result("CCOP(=O)(OCC)/C(C#N)=C(\\C)c1ccco1")
"> 10 µM"
>>> assay_result("Nc1nc2c(c(-c3ccc(F)cc3)n1)COC/C2=C\\c1ccc(F)cc1")
"> 100 µM"
>>> assay_result("CC(=O)CC(=O)N1CCOC1=O")
"> 10 µM"
>>> assay_result("ClCc1ccc(Cn2cnc3nc(Cl)nc(Cl)c32)cc1")
"0.932 µM"
>>> assay_result("CC(C)(CCc1nc2ccccc2[nH]1)C(=O)O")
"> 100 µM"
>>> assay_result("Cc1c(-c2ccc(N3CCc4cccc(C(=O)Nc5nc6ccccc6s5)c4C3)nc2C(=O)O)cnn1CC12CC3CC(CC(C3)C1)C2")
"13.5 µM"
>>> assay_result("CCCCSC1=N/C(=C\\c2ccccc2O)C(Cl)=N1")
"> 100 µM"
>>> assay_result("CCN(CC)CCCNc1nnc(C)c2[nH]c3ccccc3c12")
"67.2 µM"
>>> assay_result("CN1Cc2c(ccc3c2OCO3)[C@@H]2[C@H](O)Cc3cc4c(cc3[C@@H]21)OCO4")
"> 100 µM"
>>> assay_result("C/C(=C\\CNc1ncnc2c1ncn2CCC#N)CO")
"> 100 µM"
>>> assay_result("C[C@@H](c1ccccc1)N(CC#N)[C@H]1CCC[C@]1(O)/C=C/c1ccc2c(c1)OCO2")
"> 25 µM"
>>> assay_result("C/C(=N\\NC(=O)c1ccncc1)c1ccccc1O")
"> 100 µM"
>>> assay_result("Oc1[nH]c2ccccc2c1N=Nc1nc(-c2ccccc2)cs1")
"> 100 µM"
